# System: Tobacco mosaic virus
# Assay Summary: In vivo antiviral activity against Tobacco mosaic virus (TMV) inoculated left side of Nicotiana tabacum L. leaves assessed as inactivation effect at 100 ug/mL co-incubated with virus measured after 3 to 4 days
# Assay type: functional
The reader will find reported Activity values listed item by item below.
State the result as a value with its unit after it.

Below, each entry is followed by its recorded Activity result.
[
  {
    "Compound": "COc1cc2c3c(c4cc(OC)c(OC)cc4c2cc1OC)[C@@H](O)[C@H]1CCCN1C3",
    "Assayed Target": "Tobacco mosaic virus",
    "Activity": "26.7%"
  },
  {
    "Compound": "NC(=O)c1ncn([C@@H]2O[C@H](CO)[C@@H](O)[C@H]2O)n1",
    "Assayed Target": "Tobacco mosaic virus",
    "Activity": "9.8%"
  }
]

Consider the compound COc1ccc2c3c(c4cc(OC)c(OC)cc4c2c1)CN1CCC[C@@H]1[C@@H]3O and give its measured Activity.
33.3%

Consider the compound COc1ccc2c3c(c4cc(OC)c(OC)cc4c2c1)[C@H](O)[C@@H]1CCCN1C3 and give its measured Activity.
0%

Consider the compound COc1ccc2c3c(c4cc(OC)c(OC)cc4c2c1)CN1CCC[C@H]1C3 and give its measured Activity.
40.3%

This collection of values is drawn from ChEMBL document CHEMBL3045942.
